Provide the recorded Ki for the entries that follow.
- targetOrTestSystem: Apoptosis regulator Bcl-2 (Homo sapiens, UniProt P10415)
- Sequence (P10415 whole entry): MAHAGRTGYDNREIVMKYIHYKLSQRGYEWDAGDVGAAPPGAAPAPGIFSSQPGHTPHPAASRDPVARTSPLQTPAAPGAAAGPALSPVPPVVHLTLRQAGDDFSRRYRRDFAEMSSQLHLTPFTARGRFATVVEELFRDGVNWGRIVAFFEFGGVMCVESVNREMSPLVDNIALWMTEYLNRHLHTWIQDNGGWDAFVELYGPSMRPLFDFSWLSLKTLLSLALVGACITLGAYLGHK
Give the quantity in nM, number only.

Enquiry: Name the recorded Ki for CC(C)(C)c1ccc(N2CCN(S(=O)(=O)Nc3ccc(SCCc4ccccc4)cc3C(=O)O)CC2)cc1 .
Return: 1200

Enquiry: Name the recorded Ki for COc1cccc(CCSc2ccc(NS(=O)(=O)N3CCN(c4ccc(C(C)(C)C)cc4)CC3)c(C(=O)O)c2)c1 .
Return: 1200

Enquiry: Name the recorded Ki for O=C(O)c1cc(SCCc2ccccc2)ccc1NS(=O)(=O)N1CCN(c2ccccc2)CC1 .
Return: 11700

----------
valueType: Kd (µM)
Give the quantity in µM, number only.

Enquiry: So what Kd did CC(C)(C)c1ccc(N2CCN(S(=O)(=O)Nc3ccc(SCCc4ccccc4)cc3C(=O)O)CC2)cc1 get with Induced myeloid leukemia cell differentiation protein Mcl-1 (Homo sapiens)?
Return: 0.49

----------
- targetOrTestSystem: UniProt Q16548
- Sequence (Q16548 whole entry): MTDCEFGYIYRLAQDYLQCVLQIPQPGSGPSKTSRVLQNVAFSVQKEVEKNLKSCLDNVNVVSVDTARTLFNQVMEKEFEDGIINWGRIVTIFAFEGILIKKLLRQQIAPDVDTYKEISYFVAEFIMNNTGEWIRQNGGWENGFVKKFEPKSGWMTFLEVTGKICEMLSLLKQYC
pKi: −log10 of the molar value.
Is pKi at least 6? Then fulfilled. If not, not fulfilled.

Enquiry: Could you please find out whether O=C(O)c1cc(OCCc2ccccc2)ccc1NS(=O)(=O)c1ccccc1 has pKi that meets 6 or exceeds it?
Return: not fulfilled

Enquiry: Could you please find out whether O=C(O)c1cc(NCCc2ccccc2)ccc1NS(=O)(=O)c1ccccc1 has pKi that meets 6 or exceeds it?
Return: not fulfilled

Enquiry: Could you please find out whether O=C(Cc1ccccc1)Nc1ccc(NS(=O)(=O)c2ccccc2)c(C(=O)O)c1 has pKi that meets 6 or exceeds it?
Return: not fulfilled

Enquiry: Could you please find out whether O=C(O)c1cc(SCCc2ccccc2)ccc1NS(=O)(=O)c1ccccc1 has pKi that meets 6 or exceeds it?
Return: not fulfilled

Enquiry: Could you please find out whether O=C(CCSc1ccc(NS(=O)(=O)c2ccccc2)c(C(=O)O)c1)Nc1ccccc1 has pKi that meets 6 or exceeds it?
Return: not fulfilled

Enquiry: Could you please find out whether O=C(O)c1cc(SCCc2ccccc2)ccc1NS(=O)(=O)c1ccc(-c2ccccc2)nc1 has pKi that meets 6 or exceeds it?
Return: fulfilled

Enquiry: Could you please find out whether CC(C)(C)c1ccc(N2CCN(S(=O)(=O)Nc3ccc(SCCc4cccc(O)c4)cc3C(=O)O)CC2)cc1 has pKi that meets 6 or exceeds it?
Return: fulfilled

Enquiry: Could you please find out whether O=C(O)c1cc(SCCc2ccccc2)ccc1NS(=O)(=O)c1cccs1 has pKi that meets 6 or exceeds it?
Return: not fulfilled

Enquiry: Could you please find out whether O=C(O)c1cc(SCCc2ccccc2)ccc1NS(=O)(=O)c1ccc(C2CCCCC2)cc1 has pKi that meets 6 or exceeds it?
Return: fulfilled

Enquiry: Could you please find out whether O=C(CCc1ccccc1)Nc1ccc(NS(=O)(=O)c2ccccc2)c(C(=O)O)c1 has pKi that meets 6 or exceeds it?
Return: not fulfilled

Enquiry: Could you please find out whether COc1cccc(CCSc2ccc(NS(=O)(=O)N3CCN(c4ccc(C(C)(C)C)cc4)CC3)c(C(=O)O)c2)c1 has pKi that meets 6 or exceeds it?
Return: fulfilled

Enquiry: Could you please find out whether CC(C)(C)c1ccc(N2CCN(S(=O)(=O)Nc3ccc(SCCc4ccccc4)cc3C(=O)O)CC2)cc1 has pKi that meets 6 or exceeds it?
Return: fulfilled

Enquiry: Could you please find out whether O=C(Nc1ccc(SCCc2ccccc2)cc1C(=O)O)c1ccccc1 has pKi that meets 6 or exceeds it?
Return: not fulfilled

Enquiry: Could you please find out whether O=C(O)c1ccccc1NS(=O)(=O)c1ccccc1 has pKi that meets 6 or exceeds it?
Return: not fulfilled

Enquiry: Could you please find out whether O=C(O)c1cc(SCc2ccccc2)ccc1NS(=O)(=O)c1ccccc1 has pKi that meets 6 or exceeds it?
Return: not fulfilled

Enquiry: Could you please find out whether O=C(O)c1cc(SCCc2ccccc2)ccc1NS(=O)(=O)c1ccc(-c2ccccc2)cc1 has pKi that meets 6 or exceeds it?
Return: fulfilled

Enquiry: Could you please find out whether O=C(O)c1cc(SCCc2ccccc2)ccc1NS(=O)(=O)CCc1ccccc1 has pKi that meets 6 or exceeds it?
Return: not fulfilled

Enquiry: Could you please find out whether O=C(O)c1cc(SCCc2ccccc2)ccc1NS(=O)(=O)N1CCC(c2ccccc2)CC1 has pKi that meets 6 or exceeds it?
Return: fulfilled

Enquiry: Could you please find out whether O=C(CCCSc1ccc(NS(=O)(=O)c2ccccc2)c(C(=O)O)c1)Nc1ccccc1 has pKi that meets 6 or exceeds it?
Return: not fulfilled

Enquiry: Could you please find out whether Nc1ccc(SCCc2ccccc2)cc1C(=O)O has pKi that meets 6 or exceeds it?
Return: not fulfilled
